Numbers sourced from ChEMBL document CHEMBL1136971.

- Species: Homo sapiens
- Assay name: Ratio of Ki for human cloned mu opioid receptor to Ki for human cloned kappa opioid receptor
Square brackets hold non-standard residues; d marks the D form. Peptide text beside a SMILES is read from it.
Cut-off 2 on Ratio Ki: below means true, at or above means false.

Compound: O=C1N[C@@H](Cc2ccccc2)C(=O)N2CCC[C@@H]2C(=O)N[C@@H](Cc2ccccc2)C(=O)N[C@H]1Cc1c[nH]c2ccccc12 (cyclo(FWF[dP]))
Label: false

Compound: COc1ccc(C[C@@H]2NC(=O)[C@@H](Cc3c[nH]c4ccccc34)NC(=O)[C@H](Cc3ccccc3)NC(=O)[C@H]3CCCN3C2=O)cc1
Label: false

Compound: O=C1N[C@H](Cc2c[nH]c3ccccc23)C(=O)N[C@@H](Cc2ccccc2)C(=O)N2CCC[C@@H]2C(=O)N[C@H]1Cc1ccccc1 (cyclo(F[dP]F[dW]))
Label: false

Compound: COc1ccc(C[C@@H]2NC(=O)[C@H]3CCCN3C(=O)[C@H](Cc3ccccc3)NC(=O)[C@@H](Cc3c[nH]c4ccccc34)NC2=O)cc1
Label: false

Compound: C[C@@H]1NC(=O)[C@H]2CCCN2C(=O)[C@H](Cc2ccccc2)NC(=O)[C@@H](Cc2c[nH]c3ccccc23)NC1=O (cyclo(A[dW]F[dP]))
Label: true

Compound: O=C1N[C@H](Cc2c[nH]c3ccccc23)C(=O)N[C@@H](Cc2cccc(O)c2)C(=O)N2CCC[C@@H]2C(=O)N[C@H]1Cc1ccccc1
Label: true

Compound: O=C1N[C@H](Cc2c[nH]c3ccccc23)C(=O)N[C@@H](Cc2ccc(F)cc2)C(=O)N2CCC[C@@H]2C(=O)N[C@H]1Cc1ccccc1
Label: false

Compound: O=C1N[C@H](Cc2c[nH]c3ccccc23)C(=O)N[C@@H](Cc2ccccc2)C(=O)N2CCC[C@@H]2C(=O)N[C@H]1Cc1ccc(O)cc1
Label: true

Compound: O=C1N[C@H](Cc2c[nH]c3ccccc23)C(=O)NCC(=O)N2CCC[C@@H]2C(=O)N[C@H]1Cc1ccccc1
Label: false

Compound: O=C1N[C@H](Cc2c[nH]c3ccccc23)C(=O)N[C@@H](Cc2ccccc2)C(=O)N2CCC[C@@H]2C(=O)N[C@H]1Cc1ccc(F)cc1
Label: false

Compound: C[C@@H]1NC(=O)[C@@H](Cc2c[nH]c3ccccc23)NC(=O)[C@H](Cc2ccccc2)NC(=O)[C@H]2CCCN2C1=O (cyclo(A[dP]F[dW]))
Label: false
